# assay: Fluorescence spectra of coelenteramide analogue alone (absence of apoaequorin)
# Type: physicochemical
# condition: analogue alone 8 μg/ml, 10 mM EDTA buffer pH 7.6, excitation 337 nm
Each item that follows carries a reported Coelenteramide (EDTA-containing buffer) Maximum fluorescence wavelength λmax (nm).
Note: unit nm is implicit; provide only the numeric part.

These solved cases illustrate the format of a correct answer.
Which Coelenteramide (EDTA-containing buffer) Maximum fluorescence wavelength λmax (nm) is reported for this molecule? `O=C(Cc1ccc(O)cc1)Nc1ncc(-c2ccc(O)cc2)nc1-c1cccc2ccccc12`
462.5

Data request, read-out Coelenteramide (EDTA-containing buffer) Maximum fluorescence wavelength λmax (nm), for `O=C(Cc1ccc(O)cc1)Nc1ncc(-c2ccc(O)cc2)nc1C#Cc1ccccc1`
476.0

Recorded Coelenteramide (EDTA-containing buffer) Maximum fluorescence wavelength λmax (nm) of `O=C(Cc1ccc(O)cc1)Nc1ncc(-c2ccc(O)cc2)nc1-c1ccc(O)cc1` , please.
482.5

Consider the additional molecule presented here.
Look at this molecule and give its reported Coelenteramide (EDTA-containing buffer) Maximum fluorescence wavelength λmax (nm). `O=C(Nc1ncc(-c2ccc(O)cc2)nc1Cc1ccccc1)c1cccc2cc(O)ccc12`
409.5
